Source listed as BindingDB's records for doi:10.1021/acsmedchemlett.0c00015.

Recorded IC50 by entry
- runDescription: Inhibition of CCDC6/RET (unknown origin) transfected in human LC2/ad cells assessed as reduction in cell viability incubated for 6 days by CellTiter Glo assay
Report the figure in nM without appending any unit label.

Exercise: Could you share which IC50 value was measured for COc1ccc(-c2cnn3c(N)c(-c4ccccc4)c(NC4CC(C)(C)N(C)C(C)(C)C4)nc23)cc1OC ?
Key: 5.3

Exercise: Could you share which IC50 value was measured for CN1C(C)(C)CC(Nc2nc3c(-c4ccc(C(=O)N5CCN(S(C)(=O)=O)CC5)cc4)cnn3c(N)c2-c2ccccc2)CC1(C)C ?
Key: 6.2

Exercise: Could you share which IC50 value was measured for COc1ccc(-c2cnn3c(N)c(-c4ccccc4)c(OC4CCNCC4)nc23)cc1OC ?
Key: 160

====

Recorded pIC50 by entry
- runDescription: Inhibition of TYRO3 (unknown origin) transfected in mouse Ba/F3 cells assessed as reduction in cell viability incubated for 48 hrs by brightglo-luciferase reporter gene assay
pIC50: −log10 of the molar value.

testSmiles	observationType	observedResult
COc1ccc(-c2cnn3c(N)c(-c4nccs4)c(OC4CCN(C)CC4)nc23)cc1OC	pIC50	< 4.96
COc1ccc(-c2cnn3c(N)c(-c4ccccc4)c(OC4CCN(C)CC4)nc23)cc1OC	pIC50	< 4.96

Continue with the molecule presented below.
Exercise: Could you share which pIC50 value was measured for COC(=O)Nc1ccc(-c2c(OC3CCN(C)CC3)nc3c(-c4ccc(OC)c(OC)c4)cnn3c2N)cc1 ?
Key: 5.43

====

- runDescription: Inhibition of KIF5B-RET V804M mutant (unknown origin) transfected in mouse Ba/F3 cells assessed as reduction in cell viability incubated for 48 hrs by brightglo-luciferase reporter gene assay
observationType: IC50 (µM)
Report the figure in µM without appending any unit label.

Known IC50 results, listed for orientation:
testSmiles	observationType	observedResult
COC(=O)Nc1ccc(-c2c(OC3CCN(C)CC3)nc3c(-c4ccc(OC)c(OC)c4)cnn3c2N)cc1	IC50	0.019
COc1ccc(-c2cnn3c(N)c(-c4ccccc4)c(OC4CCN(C)CC4)nc23)cc1OC	IC50	1.8

Continue with the molecule presented below.
Exercise: Could you share which IC50 value was measured for COc1ccc(-c2cnn3c(N)c(-c4nccs4)c(OC4CCN(C)CC4)nc23)cc1OC ?
Key: 0.61

====

- runDescription: Inhibition of FLT1 (unknown origin) transfected in mouse Ba/F3 cells assessed as reduction in cell viability incubated for 48 hrs by brightglo-luciferase reporter gene assay
Recorded IC50 by entry

testSmiles	IC50
COC(=O)Nc1ccc(-c2c(OC3CCN(C)CC3)nc3c(-c4ccc(OC)c(OC)c4)cnn3c2N)cc1	3 µM

Exercise: Could you share which IC50 value was measured for COc1ccc(-c2cnn3c(N)c(-c4nccs4)c(OC4CCN(C)CC4)nc23)cc1OC ?
Key: > 11 µM

Exercise: Could you share which IC50 value was measured for COc1ccc(-c2cnn3c(N)c(-c4ccccc4)c(OC4CCN(C)CC4)nc23)cc1OC ?
Key: > 11 µM

====

- runDescription: Inhibition of FLT3 (unknown origin) transfected in mouse Ba/F3 cells assessed as reduction in cell viability incubated for 48 hrs by brightglo-luciferase reporter gene assay
Recorded IC50 by entry
Report the figure in µM without appending any unit label.

testSmiles	IC50 (µM)
COC(=O)Nc1ccc(-c2c(OC3CCN(C)CC3)nc3c(-c4ccc(OC)c(OC)c4)cnn3c2N)cc1	3.4

Exercise: Could you share which IC50 value was measured for COc1ccc(-c2cnn3c(N)c(-c4ccccc4)c(OC4CCN(C)CC4)nc23)cc1OC ?
Key: 1.7
